tested on: C. neoformans 1841 (serotype D); conditions: broth microdilution, 50% SAB in phosphate buffer pH 7.5, 5 × 10^4 CFU/mL, 30°C, read after 48 h; n = 6
Record form. Attribute: MIC (μmol/L) 1841 48 h. Fill in for each entry.

Value lookup for MIC (μmol/L) 1841 48 h; key = RRIRPRPPRLPRPRPRPLPFPRPGPRPIPRPLPFPRPGPRPIPRPLPFPRPGPRPIPRP-OH [Bac7 1–60, reference compound] 1.1 µmol/L

I am curious: what MIC (μmol/L) 1841 48 h value has been reported for gu-OIOIORPVYOPRPRPPHPRR-OH [Api813] ? 3.1 µmol/L

Quick one: MIC (μmol/L) 1841 48 h of gu-OIOIORPVYOPRPRPPHPRL-OH [Api795] ? 3.2 µmol/L

Which MIC (μmol/L) 1841 48 h is reported for this substance? gu-OPNRYIRPRLPPHPNRPV-NH2 [Api88 scr] 14 to 28 µmol/L

What MIC (μmol/L) 1841 48 h value was documented for this substance, gu-LRPHPPRPRPIYVPRNNO-NH2 [Api88 rev] ? 7.0 µmol/L
